FYI, the data here is from patent US20180036441A1.

# tested on: T1, MUC1 on HCT116/MUC1 cells (UniProt P15941 24-1255, limits assumed)
# T1 construct: whole, on cells; also called MUC1 overexpressed cell line
# T1 sequence (P15941 24-1255 limits assumed): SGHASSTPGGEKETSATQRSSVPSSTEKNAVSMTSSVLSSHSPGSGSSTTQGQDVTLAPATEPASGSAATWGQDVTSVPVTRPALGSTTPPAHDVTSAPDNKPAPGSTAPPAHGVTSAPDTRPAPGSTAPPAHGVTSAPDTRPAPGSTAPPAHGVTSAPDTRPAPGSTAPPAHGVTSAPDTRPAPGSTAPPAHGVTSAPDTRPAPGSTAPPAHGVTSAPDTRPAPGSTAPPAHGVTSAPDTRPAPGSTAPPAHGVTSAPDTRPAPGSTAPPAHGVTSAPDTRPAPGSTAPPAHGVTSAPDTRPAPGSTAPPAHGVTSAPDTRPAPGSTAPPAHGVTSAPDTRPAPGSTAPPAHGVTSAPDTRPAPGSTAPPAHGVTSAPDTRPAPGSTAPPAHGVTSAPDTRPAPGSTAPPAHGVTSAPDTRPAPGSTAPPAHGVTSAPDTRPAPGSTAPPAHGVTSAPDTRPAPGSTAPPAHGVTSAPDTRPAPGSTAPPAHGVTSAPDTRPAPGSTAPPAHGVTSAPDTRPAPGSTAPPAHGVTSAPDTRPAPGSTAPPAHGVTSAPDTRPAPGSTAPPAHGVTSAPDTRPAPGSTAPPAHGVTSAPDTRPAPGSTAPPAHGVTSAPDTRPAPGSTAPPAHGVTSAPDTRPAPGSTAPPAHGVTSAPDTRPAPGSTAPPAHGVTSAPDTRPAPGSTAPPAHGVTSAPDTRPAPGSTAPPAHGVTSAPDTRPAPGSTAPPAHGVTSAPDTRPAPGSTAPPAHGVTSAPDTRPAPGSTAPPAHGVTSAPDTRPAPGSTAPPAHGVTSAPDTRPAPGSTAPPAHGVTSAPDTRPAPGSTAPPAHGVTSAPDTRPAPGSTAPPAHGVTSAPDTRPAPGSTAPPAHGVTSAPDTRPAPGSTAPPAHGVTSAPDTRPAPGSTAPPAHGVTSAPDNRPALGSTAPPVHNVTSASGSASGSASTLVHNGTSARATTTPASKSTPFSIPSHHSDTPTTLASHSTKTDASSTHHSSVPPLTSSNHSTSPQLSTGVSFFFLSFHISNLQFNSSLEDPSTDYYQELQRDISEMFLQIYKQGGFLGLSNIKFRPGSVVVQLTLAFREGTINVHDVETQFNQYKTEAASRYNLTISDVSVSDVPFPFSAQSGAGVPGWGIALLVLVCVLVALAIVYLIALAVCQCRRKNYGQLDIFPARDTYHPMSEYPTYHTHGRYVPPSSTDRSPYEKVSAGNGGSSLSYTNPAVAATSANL
# protocol summary: FACS titration, HCT116/MUC1 cells, antibody at 3.906 nM
observed property: geometric mean

binder	result
VH5 + VL3 (antibody, V domains shown, Humanized IgG expressed in HEK293; also called humanized antibody VH5+VL3) VH: EVQLVQSGAEVKKPGESLKISCKGSGYAFSNFWMNWVRQMPGKGLEWMGQIYPGDGDTNYNGKFKGQVTISADKSISTAYLQWSSLKASDTAMYYCARSYYRSAWFAYWGQGTLVTVSL VL: EIVLTQSPATLSLSPGERATLSCRASQSIGTSIHWYQQKPGQAPRLLIYYASESISGIPARFSGSGSGTDFTLTISSLEPEDFAVYYCQQSNNWPLTFGGGTKVEIK	15.5

Look up geometric mean of VH2 + VL4 (antibody, V domains shown, Humanized IgG expressed in HEK293; also called humanized antibody VH2+VL4) VH: QVQLVQSGAEVKKPGASVKVSCKASGYAFSNFWMNWVRQAPGQGLEWMGQIYPGDGDTNYNGKFKGRVTMTRDTSTSTVYMELSSLRSEDTAVYYCARSYYRSAWFAYWGQGTLVTVSS VL: AIQLTQSPSSLSASVGDRVTITCRASQSIGTSIHWYQQKPGKAPKLLIYYASESISGVPSRFSGSGSGTDFTLTISSLQPEDFATYYCQQSNNWPLTFGGGTKVEIK and report it.
9.37

Determine from records and report geometric mean for VH3 + VL3 (antibody, V domains shown, Humanized IgG expressed in HEK293; also called humanized antibody VH3+VL3) VH: QVQLVQSGAEVKKPGASVKVSCKASGYAFSNFWMNWVRQAPGQGLEWMGQIYPGDGDTNYNGKFKGRVTMTRDTSISTAYMELSRLRSDDTAVYYCARSYYRSAWFAYWGQGTLVTVSS VL: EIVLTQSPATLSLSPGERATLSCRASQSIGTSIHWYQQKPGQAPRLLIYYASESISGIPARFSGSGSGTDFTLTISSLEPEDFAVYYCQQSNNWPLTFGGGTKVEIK
5.77

Could you please provide reported geometric mean for VH1 + VL4 (antibody, V domains shown, Humanized IgG expressed in HEK293; also called humanized antibody VH1+VL4) VH: QVQLVQSGAEVKKPGSSVKVSCKASGYAFSNFWMNWVRQAPGQGLEWMGQIYPGDGDTNYNGKFKGRVTITADKSTSTAYMELSSLRSEDTAVYYCARSYYRSAWFAYWGQGTLVTVSS VL: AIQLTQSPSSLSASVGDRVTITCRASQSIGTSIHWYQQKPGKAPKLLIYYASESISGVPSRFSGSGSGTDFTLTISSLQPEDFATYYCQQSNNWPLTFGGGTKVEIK ? Thanks!
4.1

# return recorded geometric mean for entry VH3 + VL4 (antibody, V domains shown, Humanized IgG expressed in HEK293; also called humanized antibody VH3+VL4) VH: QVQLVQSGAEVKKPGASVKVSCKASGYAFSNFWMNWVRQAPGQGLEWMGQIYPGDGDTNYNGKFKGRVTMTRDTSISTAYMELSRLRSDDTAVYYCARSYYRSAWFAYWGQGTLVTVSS VL: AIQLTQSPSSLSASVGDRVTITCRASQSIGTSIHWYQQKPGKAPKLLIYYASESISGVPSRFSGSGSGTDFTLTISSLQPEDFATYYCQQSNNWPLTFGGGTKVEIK
12
